procedureSummary: Hemolytic activity against human RBC assessed as hemolysis after 30 mins by colorimetric method
Format: ADME, cell-based, Erythrocyte
measurementContext: human red blood cells (erythrocytes)
readoutKind: HC50 at 0.5 h

[[record]]
chemsmiles = "CC(C)[C@@H]1NC(=O)C2=CC3=C4CCCC4=C4C=C(S[C@]4(C)[C@@]3(C)S2)C(=O)[C@H]2CCCN2C(=O)[C@H]([C@H](O)C(C)C)NC(=O)[C@H](CCCN)NC(=O)[C@H](C(C)C)NC(=O)[C@@H]2CCCN2C(=O)[C@@H](Cc2ccccc2)NC(=O)[C@H](C(C)C)NC(=O)[C@H](CCCN)NC1=O"
measurement = "200 µM"

[[record]]
chemsmiles = "Cc1sc2cc1C1=C(CCC1)c1cc(sc1C)C(=O)[C@H]1CCCN1C(=O)[C@H](CC(C)C)NC(=O)[C@H](CCCN)NC(=O)[C@H](C(C)C)NC(=O)[C@@H]1CCCN1C(=O)[C@@H](Cc1ccccc1)NC(=O)[C@H](CC(C)C)NC(=O)[C@H](CCCN)NC(=O)[C@H](CCCN)NC2=O"
measurement = "12 µM"

[[record]]
chemsmiles = "CC(C)C[C@@H]1NC(=O)[C@H](CCCN)NC(=O)[C@H](CCCN)NC(=O)C2=CC3=C4CCCC4=C4C=C(S[C@]4(C)[C@@]3(C)S2)C(=O)[C@H]2CCCN2C(=O)[C@H](CC(C)C)NC(=O)[C@H](CCCN)NC(=O)[C@H](C(C)C)NC(=O)[C@@H]2CCCN2C(=O)[C@@H](Cc2ccccc2)NC1=O"
measurement = "17 µM"


Pending molecule:
Query: Look at this molecule and give its reported HC50 at 0.5 h. `CC(C)C[C@@H]1NC(=O)[C@H](CCCCN)NC(=O)[C@H](C(C)C)NC(=O)[C@@H]2CCCN2C(=O)[C@@H](Cc2ccccc2)NC(=O)[C@H](CC(C)C)NC(=O)[C@H](CCCCN)NC(=O)[C@H](C(C)C)NC(=O)[C@H](CCCCN)NC(=O)C2=CC3=C4CCCC4=C4C=C(S[C@]4(C)[C@@]3(C)S2)C(=O)[C@H]2CCCN2C(=O)[C@H](CCCCN)NC1=O`
Response: 65 µM

====

Recorded measurements of selectivity ratio, one per entry
procedureSummary: Therapeutic index, ratio of HC50 for human RBC to MIC for Bacillus subtilis DSM 347
Format: toxicity
measurementContext: human red blood cells versus Bacillus subtilis DSM 347
// print number alone

[[record]]
chemsmiles = "CC(C)[C@@H]1NC(=O)C2=CC3=C4CCCC4=C4C=C(S[C@]4(C)[C@@]3(C)S2)C(=O)[C@H]2CCCN2C(=O)[C@H]([C@H](O)C(C)C)NC(=O)[C@H](CCCN)NC(=O)[C@H](C(C)C)NC(=O)[C@@H]2CCCN2C(=O)[C@@H](Cc2ccccc2)NC(=O)[C@H](C(C)C)NC(=O)[C@H](CCCN)NC1=O"
readoutkind = "selectivity ratio"
measurement = 8


Pending molecule:
Query: Look at this molecule and give its reported selectivity ratio. `CC[C@H](C)[C@@H]1NC(=O)c2cc(c(C)s2)C2=C(CCC2)c2cc(sc2C)C(=O)[C@H]2CCCN2C(=O)[C@H]([C@@H](C)CC)NC(=O)[C@H](CCCN)NC(=O)[C@H](CC(C)C)NC(=O)[C@H](CC(C)C)N(C)C(=O)[C@@H](Cc2ccccc2)NC(=O)[C@H]([C@@H](C)CC)NC(=O)[C@H](CCCN)NC1=O`
Response: 1.5

====

procedureSummary: Therapeutic index, ratio of HC50 for human RBC to MIC for Escherichia coli DSM 1103
Assay type: toxicity
measurementContext: human red blood cells versus Escherichia coli DSM 1103
readoutKind: selectivity ratio
// print number alone

[[record]]
chemsmiles = "Cc1sc2cc1C1=C(CCC1)c1cc(sc1C)C(=O)[C@H]1CCCN1C(=O)[C@H](CC(C)C)NC(=O)[C@H](CCCN)NC(=O)[C@H](C(C)C)NC(=O)[C@@H]1CCCN1C(=O)[C@@H](Cc1ccccc1)NC(=O)[C@H](CC(C)C)NC(=O)[C@H](CCCN)NC(=O)[C@H](CCCN)NC2=O"
measurement = 0.5


Query: Look at this compound and give its reported selectivity ratio. `Cc1sc2cc1C1=C(CCC1)c1cc(sc1C)C(=O)[C@H]1CCCN1C(=O)[C@H](CC(C)C)NC(=O)[C@H](CCCNC(=N)N)NC(=O)[C@H](C(C)C)NC(=O)[C@@H]1CCCN1C(=O)[C@@H](Cc1ccccc1)NC(=O)[C@H](CC(C)C)NC(=O)[C@H](CCCNC(=N)N)NC(=O)[C@H](C(C)C)NC2=O`
Response: 0.1

Query: Look at this compound and give its reported selectivity ratio. `Cc1sc2cc1C1=C(CCC1)c1cc(sc1C)C(=O)[C@H]1CCCN1C(=O)[C@H](C(C)C)NC(=O)[C@H](CCCN)N(C)C(=O)[C@H](C(C)C)NC(=O)[C@@H]1CCCN1C(=O)[C@@H](Cc1ccccc1)N(C)C(=O)[C@H](C(C)C)NC(=O)[C@H](CCCN)NC(=O)[C@H](C(C)C)NC2=O`
Response: 0.6

Query: Look at this compound and give its reported selectivity ratio. `CC(C)C[C@@H]1NC(=O)[C@H](CCCN)NC(=O)[C@H](CCCN)NC(=O)C2=CC3=C4CCCC4=C4C=C(S[C@]4(C)[C@@]3(C)S2)C(=O)[C@H]2CCCN2C(=O)[C@H](CC(C)C)NC(=O)[C@H](CCCN)NC(=O)[C@H](C(C)C)NC(=O)[C@@H]2CCCN2C(=O)[C@@H](Cc2ccccc2)NC1=O`
Response: 1.4

====

procedureSummary: Therapeutic index, ratio of HC50 for human RBC to MIC for Escherichia coli DSM 1103
Type: toxicity
measurementContext: human red blood cells versus Escherichia coli DSM 1103
readoutKind: selectivity ratio
// print number alone

[[record]]
chemsmiles = "CC(C)[C@@H]1NC(=O)C2=CC3=C4CCCC4=C4C=C(S[C@]4(C)[C@@]3(C)S2)C(=O)[C@H]2CCCN2C(=O)[C@H](C(C)C)NC(=O)[C@H](CCCN)NC(=O)[C@H]([C@H](O)C(C)C)NC(=O)[C@@H]2CCCN2C(=O)[C@@H](Cc2ccccc2)NC(=O)[C@H](C(C)C)NC(=O)[C@H](CCCN)NC1=O"
measurement = 2


Pending compound:
Query: Look at this compound and give its reported selectivity ratio. `CC(C)C[C@@H]1NC(=O)[C@H](CCCN)NC(=O)[C@H](C(C)C)NC(=O)C2=CC3=C4CCCC4=C4C=C(S[C@]4(C)[C@@]3(C)S2)C(=O)[C@H]2CCCN2C(=O)[C@H](C)NC(=O)[C@H](CCCN)NC(=O)[C@H](C(C)C)NC(=O)[C@@H]2CCCN2C(=O)[C@@H](Cc2ccccc2)NC1=O`
Response: 0.2

====

Recorded measurements of selectivity ratio, one per entry
procedureSummary: Therapeutic index, ratio of HC50 for human RBC to MIC for Escherichia coli DSM 1103
Type: toxicity
measurementContext: human red blood cells versus Escherichia coli DSM 1103
// print number alone

Query: Look at this molecule and give its reported selectivity ratio. `CC(C)C[C@@H]1NC(=O)[C@H](CCCCN)NC(=O)[C@H](C(C)C)NC(=O)C2=CC3=C4CCCC4=C4C=C(S[C@]4(C)[C@@]3(C)S2)C(=O)[C@H]2CCCN2C(=O)[C@H](CC(C)C)NC(=O)[C@H](CCCCN)NC(=O)[C@H](C(C)C)NC(=O)[C@H](CCCCN)N(C)C(=O)[C@@H](Cc2ccccc2)NC1=O`
Response: 0.2

Query: Look at this molecule and give its reported selectivity ratio. `CC[C@H](C)[C@@H]1NC(=O)C2=CC3=C4CCCC4=C4C=C(S[C@]4(C)[C@@]3(C)S2)C(=O)[C@H]2CCCN2C(=O)[C@H]([C@@H](C)CC)NC(=O)[C@H](CCCN)NC(=O)[C@H](CC(C)C)NC(=O)[C@H](CC(C)C)N(C)C(=O)[C@@H](Cc2ccccc2)NC(=O)[C@H]([C@@H](C)CC)NC(=O)[C@H](CCCN)NC1=O`
Response: 0.1

Query: Look at this molecule and give its reported selectivity ratio. `CC(C)C[C@@H]1NC(=O)[C@H](CCCNC(=N)N)NC(=O)[C@H](C(C)C)NC(=O)C2=CC3=C4CCCC4=C4C=C(S[C@]4(C)[C@@]3(C)S2)C(=O)[C@H]2CCCN2C(=O)[C@H](CC(C)C)NC(=O)[C@H](CCCNC(=N)N)NC(=O)[C@H](C(C)C)NC(=O)[C@@H]2CCCN2C(=O)[C@@H](Cc2ccccc2)NC1=O`
Response: 0.1

====

procedureSummary: Therapeutic index, ratio of HC50 for human RBC to MIC for Escherichia coli DSM 1103
Format: toxicity
measurementContext: human red blood cells versus Escherichia coli DSM 1103
readoutKind: selectivity ratio

Query: Look at this compound and give its reported selectivity ratio. `Cc1sc2cc1C1=C(CCC1)c1cc(sc1C)C(=O)[C@H]1CCCN1C(=O)[C@H](CC(C)C)NC(=O)[C@H](CCCCN)NC(=O)[C@H](C(C)C)NC(=O)[C@H](CCCCN)N(C)C(=O)[C@@H](Cc1ccccc1)NC(=O)[C@H](CC(C)C)NC(=O)[C@H](CCCCN)NC(=O)[C@H](C(C)C)NC2=O`
Response: 0.1

Query: Look at this compound and give its reported selectivity ratio. `CC(C)C[C@@H]1NC(=O)[C@H](CCCN)NC(=O)[C@H](C)NC(=O)C2=CC3=C4CCCC4=C4C=C(S[C@]4(C)[C@@]3(C)S2)C(=O)[C@H]2CCCN2C(=O)[C@H](C)NC(=O)[C@H](CCCN)NC(=O)[C@H](C(C)C)NC(=O)[C@@H]2CCCN2C(=O)[C@@H](Cc2ccccc2)NC1=O`
Response: 0.8
